Test system: MCF10A
testDetails: one-nucleolus phenotype percent effect (relative to siNT 0% and siNOL11 100%); higher = more cells with one nucleolus (ribosome biogenesis inhibition)
testParameters: 20 nM; 72 h
// f strictly below 10% in one-nucleolus phenotype percent effect; t otherwise

Record excerpt, results attached:
UAUGGAGGUUCUAGACCAUGUU [hsa-miR-4802-5p]
t
UAGAGGAAGCUGUGGAGAGA [hsa-miR-3125]
t
CCUGCUGGUCAGGAGUGGAUACUG [hsa-miR-3692-5p]
f

Dear colleague, could you confirm whether AAAGGUAACUGUGAUUUUUGCU [hsa-miR-548ba] has one-nucleolus phenotype percent effect at or above 10%?
f

Now give it for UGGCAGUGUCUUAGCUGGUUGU [hsa-miR-34a-5p] too.
t

And UGCAAAAGUAAUUGCAGUUUUUG [hsa-miR-548aj-5p] ?
f

meta.source: the supplement of paper PMC10899765
